# experiment: forskolin-driven CRE-LacZ activity in PC12 – cell-based, CRE-LacZ reporter, forskolin-stimulated, primary screen (AID 1146);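 also: PC12 cells with 6xCRE LacZ reporter stimulated by forskolin 10 µM; beta-galactosidase reporter signal reflecting CREB driven transcription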
# assay setup: luminescence, 4.5 h, higher = more signal, called active from +8 up or from −8 down

# compound, z-score
data = [
    ("COCCCNC(=O)[C@@]1(Cc2ccccc2CN=[N+]=[N-])N=C(c2ccc(OCCCO)cc2)O[C@H]1c1ccccc1N=[N+]=[N-]", -0.834),
    ("C[N+](C)(C)CCCCCCNC(=O)[C@H]1C[C@H]2C(=O)N3CCC[C@H]3C(=O)N2[C@H]1c1cccc(OCCO)c1", -0.583),
    ("O=C(C=C(CC(O)c1cccc(Cl)c1)OCCF)OCCF (configuration not stated)", -0.722),
    ("COC(=O)C(CC#Cc1ccc2c(c1)[C@]1(C(=O)N2)[C@H](C(=O)N2CCc3cc(OC)c(OC)cc3C2)[C@H]2C(=O)O[C@H](c3ccccc3)[C@H](c3ccccc3)N2[C@@H]1c1ccc(O)cc1)C(=O)OC", -1.12),
    ("Cc1ccc(S[C@]2(C(=O)NCC(C)C)CC(=O)N(C3CCCCC3)[C@@H]2c2ccc(CO)cc2I)cc1", 0.413),
    ("COc1ccc([Si](C)(C)[C@@H]2[C@@H](CC(=O)N(CCO)Cc3ccccc3)O[C@]3(C(=O)N(Cc4ccc(N5CCOC5=O)cc4)c4ccccc43)[C@H]2C)cc1", 0.331),
    ("COc1ccc([Si](C)(C)[C@@H]2[C@@H](CCO)O[C@]3(C(=O)N(Cc4cccc(N5C(=O)COc6ccccc65)c4)c4ccccc43)[C@H]2C)cc1", 0.586),
    ("COCCCNC(=O)[C@@H]1c2ccccc2C(=O)N(c2ccc(C)cn2)[C@H]1c1ccc(CO)cc1", -0.563),
    ("C[C@@]1([C@@H](NC(=O)c2cccs2)c2ccc(-c3ccccc3)cc2)C[C@H]1C1CCCCC1", -0.169),
    ("[N-]=[N+]=NCc1ccccc1C[C@@]1(C(=O)NCCN2CCOCC2)N=C(c2ccc(OCCCO)cc2)O[C@@H]1c1ccccc1CN=[N+]=[N-]", -0.781),
    ("COc1ccc(C#Cc2ccc3c(c2)[C@]2(C(=O)N3)[C@H](C(=O)O)[C@H]3C(=O)O[C@H](c4ccccc4)[C@H](c4ccccc4)N3[C@@H]2c2ccc(OCCO)cc2)cc1", 0.408),
    ("C=C(COC)/C(=C/C[C@@H](OC(=O)c1ccncc1)c1cccc(OCCO)c1)c1cc(C(=O)OC)ccc1OC", -0.376),
    ("NC(=O)NCC#Cc1ccc2c(c1)[C@]1(C(=O)N2)[C@H](c2ccc(O)cc2)N2[C@H](c3ccccc3)[C@H](c3ccccc3)OC(=O)[C@H]2[C@@H]1C(=O)NC[C@H](O)c1ccccc1", -0.334),
    ("Cc1ccc(-c2cccc(=O)o2)cc1", 0.699),
    ("O=C1C[C@@](C(=O)O)(c2ccc([N+](=O)[O-])cc2)[C@@H](c2ccc(CO)cc2)N1CC12CC3CC(CC(C3)C1)C2", 0.351),
    ("NC(=O)NCC#Cc1ccc2c(c1)[C@]1(C(=O)N2)[C@H](c2ccc(O)cc2)N2[C@H](c3ccccc3)[C@H](c3ccccc3)OC(=O)[C@H]2[C@@H]1C(N)=O", 0.143),
    ("COc1ccc(C#Cc2ccc3c(c2)[C@]2(C(=O)N3)[C@H](C(N)=O)[C@H]3C(=O)O[C@H](c4ccccc4)[C@H](c4ccccc4)N3[C@@H]2c2ccc(O)cc2)cc1", -0.332),
]
